Could you please report measured pKi for the items listed next?
- measuredOn: hMC2 receptor (crude hMC2R membranes from CRE-bla-CHO-K1 cells stably expressing hMC2 receptor and hMRAP accessory protein) (Homo sapiens, UniProt Q01718)
- Construct: crude membrane fractions
- Sequence (Q01718 whole entry): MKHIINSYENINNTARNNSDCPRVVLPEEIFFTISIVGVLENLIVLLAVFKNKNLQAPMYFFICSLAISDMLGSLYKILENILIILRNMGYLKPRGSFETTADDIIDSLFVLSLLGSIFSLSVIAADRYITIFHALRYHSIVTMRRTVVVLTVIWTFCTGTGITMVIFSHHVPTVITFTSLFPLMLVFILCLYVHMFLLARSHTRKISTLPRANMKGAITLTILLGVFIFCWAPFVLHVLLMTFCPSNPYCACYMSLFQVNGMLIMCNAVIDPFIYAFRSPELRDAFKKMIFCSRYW
- Sequence (Q8TCY5 whole entry partner): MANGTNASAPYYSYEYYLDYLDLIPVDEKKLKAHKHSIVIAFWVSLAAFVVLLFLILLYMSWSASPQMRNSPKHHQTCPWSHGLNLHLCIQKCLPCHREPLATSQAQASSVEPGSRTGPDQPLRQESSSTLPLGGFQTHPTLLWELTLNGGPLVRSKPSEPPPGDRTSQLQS
- measurementProtocol: hMC2 membrane binding assay ([125I]ACTH (1-39) Tyr23, SPA)
- details: displacement of 0.2 nM [125I]ACTH (1-39) Tyr23 from hMC2R membranes, 1.5 hours at room temperature; read-out: MC2R binding potency
pKi: −log10 of the molar value.

Input: Given the compound CCOc1ncccc1-c1ccc(C2(C(=O)N[C@@H]3CCN(C)C3)CCN(c3ccc(C(F)(F)F)c(Cl)c3)CC2)cc1 [Compound 1-165] , what is its reported pKi?
Output: 7.00 to 8.00

Input: What value of pKi has been reported for the following compound? CCOc1ccccc1-c1ccc(C2(C(=O)N[C@H]3CCN(C)C3)CCN(c3c(F)cc(Cl)cc3C#N)CC2)cn1 [Compound 1-111]
Output: > 8.00

Input: Fill blank: measured pKi of the compound CCOc1ncccc1-c1ccc(C2(NC(=O)[C@@H]3CCNC3)CCN(c3ccc(C(F)(F)F)cc3C#N)CC2)cn1 [Compound 2-6] is ____.
Output: > 8.00

Input: So what's the measured pKi for this one? CCOc1ncccc1-c1ccc(C2(NC(=O)[C@@H]3CCCN3C)CCN(c3ccc(C(F)(F)F)cc3C#N)CC2)cc1 [Compound 2-11]
Output: 7.00 to 8.00

Input: Returns the measured pKi for the input compound. Input: COc1ccccc1-c1ccc(C2(C(=O)NC[C@@H]3CN(C)CCO3)CCN(c3ccc(C(F)(F)F)cc3C#N)CC2)cn1 [Compound 1-330]
Output: 7.00 to 8.00

Input: Returns the measured pKi for the input compound. Input: CCOc1ncccc1-c1ccc(C2(NC(=O)[C@H]3CCCN3C)CCN(c3ccc(C(F)(F)F)cc3C#N)CC2)cc1 [Compound 2-17]
Output: 7.00 to 8.00

Input: Request the reported pKi associated with CCOc1ncccc1-c1ccc(C2(C(=O)N[C@H]3CCN(C)C3)CCN(c3ccc(OC(F)(F)F)cc3C#N)CC2)cn1 [Compound 1-39]
Output: > 8.00

Input: Need pKi of CCOc1ncccc1-c1ccc(C2(C(=O)NCCCN)CCN(c3ccc(C(F)(F)F)cc3C#N)CC2)cc1 [Compound 1-5] , thanks.
Output: 7.00 to 8.00

Input: Query: pKi; subject: COc1ccccc1-c1ccc(C2(C(=O)NC[C@H]3CCN3)CCN(c3ccc(C(F)(F)F)cc3C#N)CC2)cn1 [Compound 1-236]
Output: > 8.00

Input: // pKi lookup, key: CCOc1ccccc1-c1ncc(C2(C(=O)NCCNC)CCN(c3ccc(C(F)(F)F)cc3F)CC2)cc1F [Compound 1-290]
Output: > 8.00

Input: GET /values?readout=pKi&item= COc1ccccc1-c1ccc(C2(C(=O)NC[C@H]3CN(C)CCO3)CCN(c3ccc(C(F)(F)F)cc3C#N)CC2)cn1 [Compound 1-327]
Output: 7.00 to 8.00

Input: What pKi value was documented for this compound, COc1ccccc1-c1ncc(C2(C(=O)N[C@H]3CCN(C)C3)CCN(c3ccc(C(F)(F)F)cc3C#N)CC2)cc1F [Compound 1-127] ?
Output: > 8.00

Input: Please look up its pKi: CCOc1ncccc1-c1ncc(C2(C(=O)N[C@H]3CCN(C)C3)CCN(c3ccc(C(F)(F)F)cc3C#N)CC2)cc1F [Compound 1-109]
Output: > 8.00

Input: // lookup pKi for CNC[C@H](C)NC(=O)C1(c2ccc(-c3cccn3C)nc2)CCN(c2ccc(C(F)(F)F)cc2F)CC1 [Compound 1-298]
Output: > 8.00
